# Tested on: HCI11 (cells of an ER-positive luminal breast cancer xenograft)
# protocol-notes: cell viability (% of vehicle); higher = less cytotoxic;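 also: PDX cells carrying CMV promoter-driven luciferase, viability read as total photon flux per second by IVIS imaging following D-luciferin, vehicle control 0.1% DMSO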
# condition-details: 10 µM; 72 h
Assign cell viability to each entry below.
Number only, please.

Q: Write down cell viability measured for item CC#CCn1c(N2CCCC(N)C2)nc2c1c(=O)n(Cc1nc(C)c3ccccc3n1)c(=O)n2C (centres undefined)
Ans: 142

Q: Write down cell viability measured for item O=C(O)CSCC(=O)NC1CCSC1=O (centres undefined)
Ans: 108

Q: Write down cell viability measured for item Cl.Cl.O=C1c2c(O)ccc(O)c2C(=O)c2c(NCCNCCO)ccc(NCCNCCO)c21 [Mitoxantrone HCl]
Ans: 55.7

Q: Write down cell viability measured for item "COc1cc(C=CC(=O)CC(=O)C=Cc2ccc(O)c(OC)c2)ccc1O"
Ans: 51

---

# Tested on: UCD52 (cells of a triple-negative basal-like breast cancer xenograft)
# protocol-notes: cell viability (% of vehicle); higher = less cytotoxic
# condition-details: 10 µM; 72 h
Lab note - cut at 80 for cell viability: 1 if strictly below, 0 if not.

Q: Determine if NS(=O)(=O)c1cc(C(=O)O)c(NCc2ccco2)cc1Cl [Furosemide] shows cell viability strictly lower than 80.
Ans: 0

Q: Determine if "CN(C)NN=C1N=CN=C1C(N)=O" shows cell viability strictly lower than 80.
Ans: 0

Q: Determine if "CNS(=O)(=O)CCc1ccc2[nH]cc(C3CCN(C)CC3)c2c1.Cl" shows cell viability strictly lower than 80.
Ans: 0

Q: Determine if "Cc1cc2c(cc1S(N)(=O)=O)S(=O)(=O)CCC2" shows cell viability strictly lower than 80.
Ans: 0

Q: Determine if "CN1C[C@@H]2c3ccccc3Oc3ccc(Cl)cc3[C@H]2C1.O=C(O)/C=C/C(=O)O" shows cell viability strictly lower than 80.
Ans: 1

Q: Determine if CC(=O)OCC(=O)C1(O)CCC2C3CCC4=CC(=O)C=CC4(C)C3C(O)CC21C (stereo not drawn) [Prednisolone Acetate] shows cell viability strictly lower than 80.
Ans: 0

Q: Determine if "CC(O)C(=O)O.CC(O)C(=O)O.CN1CCN(c2ccc3c(c2)NC(=C2C(=O)N=c4cccc(F)c4=C2N)N3)CC1" shows cell viability strictly lower than 80.
Ans: 1

Q: Determine if "COC(=O)N=NC=C1C=[N+]([O-])c2ccccc2N1O" shows cell viability strictly lower than 80.
Ans: 1

---

# System: HCI09 (cells of a triple-negative luminal androgen receptor type breast cancer xenograft)
# protocol-notes: cell viability (% of vehicle); higher = less cytotoxic
# condition-details: 10 µM; 72 h
cell viability class ranges: lo = under 70, med = from 70 up to 100, hi = 100 and over

Q: Would you mind sorting NCC1OC(OC2C(CO)OC(OC3C(O)C(N)CC(N)C3OC3OC(CO)C(O)C(O)C3N)C2O)C(N)C(O)C1O.O=S(=O)(O)O (centres undefined) [Paromomycin Sulfate] into the appropriate category?
Ans: med

Q: Would you mind sorting CC1Cc2ccccc2N1NC(=O)c1ccc(Cl)c(S(N)(=O)=O)c1 (centres undefined) [Indapamide] into the appropriate category?
Ans: med

Q: Would you mind sorting "CCCCCCCCc1ccc(CCC(N)(CO)CO)cc1.Cl" into the appropriate category?
Ans: lo

Q: Would you mind sorting CC(C)C(=O)OCC(=O)[C@@]12O[C@H](C3CCCCC3)O[C@@H]1C[C@H]1[C@@H]3CCC4=CC(=O)C=C[C@]4(C)[C@H]3[C@@H](O)C[C@@]12C [Ciclesonide] into the appropriate category?
Ans: lo

Q: Would you mind sorting CN1C2CCC1CC(OC(c1ccccc1)c1ccccc1)C2.CS(=O)(=O)O (centres undefined) [Benztropine mesylate] into the appropriate category?
Ans: hi

Q: Would you mind sorting "C=CC(=O)Nc1cc(Nc2nccc(-c3cn(C)c4ccccc34)n2)c(OC)cc1N(C)CCN(C)C" into the appropriate category?
Ans: lo

Q: Would you mind sorting CC(C)(C)NC(=O)C1CC2CCCCC2CN1CC(O)C(Cc1ccccc1)NC(=O)C(CC(N)=O)NC(=O)c1ccc2ccccc2n1.CS(=O)(=O)O (centres undefined) [Saquinavir mesylate] into the appropriate category?
Ans: lo

Q: Would you mind sorting CCNC1CC(C)S(=O)(=O)c2sc(S(N)(=O)=O)cc21.Cl (centres undefined) [Dorzolamide HCl] into the appropriate category?
Ans: med

Q: Would you mind sorting COc1cc(C2c3cc4c(cc3C(OC3OC5COC(c6cccs6)OC5C(O)C3O)C3COC(=O)C23)OCO4)cc(OC)c1O (centres undefined) [Teniposide] into the appropriate category?
Ans: hi

Q: Would you mind sorting O=C(NC1CCN(CCCCC2(C(=O)NCC(F)(F)F)c3ccccc3-c3ccccc32)CC1)c1ccccc1-c1ccc(C(F)(F)F)cc1 [Lomitapide] into the appropriate category?
Ans: lo

Q: Would you mind sorting "CCn1cc(C(=O)O)c(=O)c2cnc(N3CCCC3)nc21" into the appropriate category?
Ans: hi

Q: Would you mind sorting O=c1nc[nH]c2c1ncn2C1CCC(CO)O1 (centres undefined) into the appropriate category?
Ans: med

Q: Would you mind sorting "NC(=O)CC[C@H](N)C(=O)O" into the appropriate category?
Ans: med

Q: Would you mind sorting Cc1c(-c2ccc(O)cc2)n(Cc2ccc(OCCN3CCCCCC3)cc2)c2ccc(O)cc12.Cl [Bazedoxifene HCl] into the appropriate category?
Ans: lo

Q: Would you mind sorting "CO[C@H]1C(=O)[C@]2(C)[C@@H](OC)C[C@H]3OC[C@@]3(OC(C)=O)[C@H]2[C@H](OC(=O)c2ccccc2)[C@]2(O)C[C@H](OC(=O)[C@H](O)[C@@H](NC(=O)OC(C)(C)C)c3ccccc3)C(C)=C1C2(C)C" into the appropriate category?
Ans: lo

Q: Would you mind sorting CC1=C(CC(=O)O)c2cc(F)ccc2C1=Cc1ccc(S(C)=O)cc1 (centres undefined) into the appropriate category?
Ans: med

Q: Would you mind sorting "CN1C(C(=O)Nc2ccccn2)=C(O)c2sc(Cl)cc2S1(=O)=O" into the appropriate category?
Ans: med

Q: Would you mind sorting "Nc1ccc(S(=O)(=O)Nc2ncccn2)cc1" into the appropriate category?
Ans: hi

Q: Would you mind sorting C=CCc1cc(OC)c(O)c(C(=O)NCCO)c1 [Alibendol] into the appropriate category?
Ans: hi

Q: Would you mind sorting "NNC(=O)c1ccncc1.Nc1ccc(C(=O)O)c(O)c1" into the appropriate category?
Ans: hi

Q: Would you mind sorting Cl.O=C1OC(CN2CCOCC2)CN1N=Cc1ccc([N+](=O)[O-])o1 (centres undefined) [Furaltadone HCl] into the appropriate category?
Ans: lo

Q: Would you mind sorting CC1COc2c(N3CCN(C)CC3)c(F)cc3c(=O)c(C(=O)O)cn1c23 (centres undefined) into the appropriate category?
Ans: hi

Q: Would you mind sorting COc1cc(Nc2c(C#N)cnc3cc(OCCCN4CCN(C)CC4)c(OC)cc23)c(Cl)cc1Cl [Bosutinib (SKI-606)] into the appropriate category?
Ans: lo

Q: Would you mind sorting Cn1cnc2c(F)c(Nc3ccc(Br)cc3Cl)c(C(=O)NOCCO)cc21 [AZD6244 (Selumetinib)] into the appropriate category?
Ans: med

Q: Would you mind sorting CNCC(O)c1ccc(O)c(O)c1.O=C(O)C(O)C(O)C(=O)O (centres undefined) [Epinephrine Bitartrate] into the appropriate category?
Ans: med

Q: Would you mind sorting "COc1cc(C(=O)NS(=O)(=O)c2ccccc2C)ccc1Cc1cn(C)c2ccc(NC(=O)OC3CCCC3)cc12" into the appropriate category?
Ans: lo
